biological target: menin/MLL (terbium chelate-labeled menin, FITC-MBM1 peptide) (Homo sapiens (Human)); assay: Menin/MLL homogenous time-resolved fluorescence (HTRF) assay; type: binding; conditions: HTRF-30 min incubation IC50, 30 min incubation;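 further: IC50 from percent inhibition of HTRF signal, normalized between wells without competitor and wells with a saturating competitor that displaces FITC-MBM1 from His-tagged menin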
Sequence (O00255 other isoform, or with tags, fused parts or gaps): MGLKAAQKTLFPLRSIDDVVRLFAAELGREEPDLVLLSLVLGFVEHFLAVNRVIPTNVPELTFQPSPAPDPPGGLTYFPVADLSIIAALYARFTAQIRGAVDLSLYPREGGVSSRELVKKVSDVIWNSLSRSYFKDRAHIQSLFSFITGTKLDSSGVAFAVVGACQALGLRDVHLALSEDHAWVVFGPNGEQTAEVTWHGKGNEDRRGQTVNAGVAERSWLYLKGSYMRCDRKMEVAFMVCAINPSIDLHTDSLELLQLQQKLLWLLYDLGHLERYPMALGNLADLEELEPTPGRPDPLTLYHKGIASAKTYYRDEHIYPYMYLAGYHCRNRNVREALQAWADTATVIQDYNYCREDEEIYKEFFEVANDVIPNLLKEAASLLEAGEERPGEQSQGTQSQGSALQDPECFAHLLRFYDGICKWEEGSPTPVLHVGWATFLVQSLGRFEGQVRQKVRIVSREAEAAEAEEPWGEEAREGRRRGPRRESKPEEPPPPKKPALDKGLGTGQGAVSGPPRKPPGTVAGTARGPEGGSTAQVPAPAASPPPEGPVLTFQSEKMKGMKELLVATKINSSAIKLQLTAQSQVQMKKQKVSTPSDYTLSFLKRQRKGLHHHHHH
pIC50: −log10 of the molar value. Counter-ions that a name gives are not always drawn.
Metric: pIC50

{"columns": ["Compound", "System Tested", "Observed"],
 "data": [
  ["CCCN(C)C[C@H](O)C[C@H](C(C)C)N1CC2(CCN(c3ncnnc3Oc3ccc(F)cc3C(=O)N(CC)C(C)C)C2)C1 (single isomer, unassigned) [Compound 386]", "menin/MLL (terbium chelate-labeled menin, FITC-MBM1 peptide) (Homo sapiens (Human))", "~9.23"],
  ["CCN(C(=O)c1cc(F)ccc1Oc1nncnc1N1CCC2(C1)CN([C@H](CCCNC[C@H](O)COC)C(C)C)C2)C(C)C [Compound 284, formate]", "menin/MLL (terbium chelate-labeled menin, FITC-MBM1 peptide) (Homo sapiens (Human))", "~9.44"],
  ["CCN(C(=O)c1cc(F)ccc1Oc1nncnc1N1CCC2(C1)CN(C(C(C)C)C(C)CCN(C)CCOC)C2)C(C)C (single isomer, unassigned) [Compound 266]", "menin/MLL (terbium chelate-labeled menin, FITC-MBM1 peptide) (Homo sapiens (Human))", 9.04]
]}
